# targetDesc: acetylcholine receptor (Homo sapiens)
# testName: SPR binding affinity (RU) of optimized 5mer/6mer/7mer peptides, Examples 6-7
# conditionDetails: SPR; XRRGVRR-7mer and RRGVRRX-7mer
Each entry below carries its reported Binding affinity, values relative to the RRGVRR sequence.
measurementKind: Binding affinity, values relative to the RRGVRR sequence

- substance: "3663 (RRGVRRV) [compound 3663]"
  measured: 149
- substance: "3653 (YRRGVRR) [compound 3653]"
  measured: 145
- substance: "3649 (WRRGVRR) [compound 3649]"
  measured: 134
- substance: "3677 (RRGVRRR) [compound 3677]"
  measured: 188
- substance: "3672 (RRGVRRT) [compound 3672]"
  measured: 113
- substance: "3652 (TRRGVRR) [compound 3652]"
  measured: 105
- substance: "3645 (PRRGVRR) [compound 3645]"
  measured: 138
- substance: "3658 (HRRGVRR) [compound 3658]"
  measured: 160
- substance: "3664 (RRGVRRC) [compound 3664]"
  measured: 131
- substance: "3642 (ARRGVRR) [compound 3642]"
  measured: 134
- substance: "3657 (RRRGVRR) [compound 3657]"
  measured: 185
- substance: "3647 (IRRGVRR) [compound 3647]"
  measured: 126
- substance: "3669 (RRGVRRW) [compound 3669]"
  measured: 134
- substance: "3654 (NRRGVRR) [compound 3654]"
  measured: 109
- substance: "3650 (FRRGVRR) [compound 3650]"
  measured: 139
- substance: "3670 (RRGVRRF) [compound 3670]"
  measured: 137
- substance: "3674 (RRGVRRN) [compound 3674]"
  measured: 105
- substance: "3666 (RRGVRRL) [compound 3666]"
  measured: 146
- substance: "3646 (LRRGVRR) [compound 3646]"
  measured: 149
- substance: "3655 (QRRGVRR) [compound 3655]"
  measured: 101
- substance: "3671 (RRGVRRS) [compound 3671]"
  measured: 118
- substance: "3656 (KRRGVRR) [compound 3656]"
  measured: 169
- substance: "3648 (MRRGVRR) [compound 3648]"
  measured: 124
- substance: "3641 (GRRGVRR) [compound 3641]"
  measured: 137
- substance: "3675 (RRGVRRQ) [compound 3675]"
  measured: 105
- substance: "3651 (SRRGVRR) [compound 3651]"
  measured: 117
- substance: "3667 (RRGVRRI) [compound 3667]"
  measured: 138

###

Readings of Binding affinity for the listed substances
# targetDesc: acetylcholine receptor (Homo sapiens, UniProt P02708)
# Sequence (P02708 21-457): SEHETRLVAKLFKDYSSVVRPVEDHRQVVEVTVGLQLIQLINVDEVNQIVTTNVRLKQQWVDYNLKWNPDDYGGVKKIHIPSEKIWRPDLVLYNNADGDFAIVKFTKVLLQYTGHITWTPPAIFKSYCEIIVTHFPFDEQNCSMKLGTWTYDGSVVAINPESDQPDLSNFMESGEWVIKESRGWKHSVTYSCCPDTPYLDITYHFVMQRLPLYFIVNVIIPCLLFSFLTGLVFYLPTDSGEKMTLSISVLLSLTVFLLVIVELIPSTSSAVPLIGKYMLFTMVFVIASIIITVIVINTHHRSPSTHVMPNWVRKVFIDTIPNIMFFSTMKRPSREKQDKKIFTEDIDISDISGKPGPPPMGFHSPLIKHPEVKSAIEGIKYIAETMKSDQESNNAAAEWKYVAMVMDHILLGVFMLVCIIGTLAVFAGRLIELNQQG
# testName: SPR binding affinity (RU) of optimized 5mer/6mer/7mer peptides, Examples 6-7
# conditionDetails: SPR, peptides tested at 10 μM; 6mer-1 Bottom sequence (Table 11)
# Description: Based on the frequencies of occurrence of the top 7 amino acids from Table 7 in Example 5, 600 peptides comprising these amino acids (top combinations) and those comprising the 13 less frequently occurring amino acids (bottom combinations) were synthesized for each series of 5mer, 6mer-1, and 6mer-2. The binding affinity of each sequence for the acetylcholine receptor was measured using Surface Plasmon Resonance (SPR) analysis method. The peptides were tested at a concentration of 10 μM. […]

- substance: "6mer-1-846 (RKDAEK)"
  targetDesc: "acetylcholine receptor (Homo sapiens, UniProt P02708)"
  Binding affinity: "28 Ru"
- substance: "6mer-1-961 (RRTWAR)"
  targetDesc: "acetylcholine receptor (Homo sapiens, UniProt P02708)"
  Binding affinity: "122 Ru"
- substance: "6mer-1-805 (KRDTMK)"
  targetDesc: "acetylcholine receptor (Homo sapiens, UniProt P02708)"
  Binding affinity: "24 Ru"
- substance: "6mer-1-898 (RKATKR)"
  targetDesc: "acetylcholine receptor (Homo sapiens, UniProt P02708)"
  Binding affinity: "31 Ru"
- substance: "6mer-1-977 (RRPCFR)"
  targetDesc: "acetylcholine receptor (Homo sapiens, UniProt P02708)"
  Binding affinity: "43 Ru"
- substance: "6mer-1-978 (RRKSHK)"
  targetDesc: "acetylcholine receptor (Homo sapiens, UniProt P02708)"
  Binding affinity: "43 Ru"
- substance: "6mer-1-842 (RRFANK)"
  targetDesc: "acetylcholine receptor (Homo sapiens, UniProt P02708)"
  Binding affinity: "11 Ru"
- substance: "6mer-1-955 (RKECFK)"
  targetDesc: "acetylcholine receptor (Homo sapiens, UniProt P02708)"
  Binding affinity: "23 Ru"
- substance: "6mer-1-984 (KKESDK)"
  targetDesc: "acetylcholine receptor (Homo sapiens, UniProt P02708)"
  Binding affinity: "33 Ru"
- substance: "6mer-1-980 (RKICAK)"
  targetDesc: "acetylcholine receptor (Homo sapiens, UniProt P02708)"
  Binding affinity: "33 Ru"
- substance: "6mer-1-866 (KRCHFR)"
  targetDesc: "acetylcholine receptor (Homo sapiens, UniProt P02708)"
  Binding affinity: "26 Ru"
- substance: "6mer-1-905 (RRICER)"
  targetDesc: "acetylcholine receptor (Homo sapiens, UniProt P02708)"
  Binding affinity: "36 Ru"
- substance: "6mer-1-891 (RKMAFR)"
  targetDesc: "acetylcholine receptor (Homo sapiens, UniProt P02708)"
  Binding affinity: "13 Ru"
- substance: "6mer-1-802 (RKYHGR)"
  targetDesc: "acetylcholine receptor (Homo sapiens, UniProt P02708)"
  Binding affinity: "32 Ru"
- substance: "6mer-1-976 (RKEMIK)"
  targetDesc: "acetylcholine receptor (Homo sapiens, UniProt P02708)"
  Binding affinity: "40 Ru"
- substance: "6mer-1-850 (RRNPEK)"
  targetDesc: "acetylcholine receptor (Homo sapiens, UniProt P02708)"
  Binding affinity: "29 Ru"
- substance: "6mer-1-907 (RKPAWR)"
  targetDesc: "acetylcholine receptor (Homo sapiens, UniProt P02708)"
  Binding affinity: "42 Ru"
- substance: "6mer-1-940 (RKPEDR)"
  targetDesc: "acetylcholine receptor (Homo sapiens, UniProt P02708)"
  Binding affinity: "29 Ru"
- substance: "6mer-1-881 (KKHMER)"
  targetDesc: "acetylcholine receptor (Homo sapiens, UniProt P02708)"
  Binding affinity: "20 Ru"
- substance: "6mer-1-821 (RRTTNR)"
  targetDesc: "acetylcholine receptor (Homo sapiens, UniProt P02708)"
  Binding affinity: "22 Ru"
- substance: "6mer-1-903 (KKHKPR)"
  targetDesc: "acetylcholine receptor (Homo sapiens, UniProt P02708)"
  Binding affinity: "37 Ru"
- substance: "6mer-1-819 (KRMHAK)"
  targetDesc: "acetylcholine receptor (Homo sapiens, UniProt P02708)"
  Binding affinity: "17 Ru"
- substance: "6mer-1-909 (RKFCMR)"
  targetDesc: "acetylcholine receptor (Homo sapiens, UniProt P02708)"
  Binding affinity: "33 Ru"
- substance: "6mer-1-960 (KKCPFR)"
  targetDesc: "acetylcholine receptor (Homo sapiens, UniProt P02708)"
  Binding affinity: "34 Ru"
- substance: "6mer-1-966 (RRNSWK)"
  targetDesc: "acetylcholine receptor (Homo sapiens, UniProt P02708)"
  Binding affinity: "22 Ru"
- substance: "6mer-1-798 (RRDCFR)"
  targetDesc: "acetylcholine receptor (Homo sapiens, UniProt P02708)"
  Binding affinity: "18 Ru"
- substance: "6mer-1-917 (KRADDK)"
  targetDesc: "acetylcholine receptor (Homo sapiens, UniProt P02708)"
  Binding affinity: "27 Ru"
- substance: "6mer-1-803 (RKMKHK)"
  targetDesc: "acetylcholine receptor (Homo sapiens, UniProt P02708)"
  Binding affinity: "31 Ru"
- substance: "6mer-1-945 (RKTSIK)"
  targetDesc: "acetylcholine receptor (Homo sapiens, UniProt P02708)"
  Binding affinity: "31 Ru"
- substance: "6mer-1-938 (KKIAWK)"
  targetDesc: "acetylcholine receptor (Homo sapiens, UniProt P02708)"
  Binding affinity: "28 Ru"
- substance: "6mer-1-807 (RRDKNR)"
  targetDesc: "acetylcholine receptor (Homo sapiens, UniProt P02708)"
  Binding affinity: "13 Ru"
- substance: "6mer-1-950 (RKEDKR)"
  targetDesc: "acetylcholine receptor (Homo sapiens, UniProt P02708)"
  Binding affinity: "29 Ru"
- substance: "6mer-1-947 (KRTKGR)"
  targetDesc: "acetylcholine receptor (Homo sapiens, UniProt P02708)"
  Binding affinity: "31 Ru"
- substance: "6mer-1-924 (RKFNWR)"
  targetDesc: "acetylcholine receptor (Homo sapiens, UniProt P02708)"
  Binding affinity: "29 Ru"
- substance: "6mer-1-873 (KRIWAR)"
  targetDesc: "acetylcholine receptor (Homo sapiens, UniProt P02708)"
  Binding affinity: "23 Ru"
- substance: "6mer-1-995 (KRCHHR)"
  targetDesc: "acetylcholine receptor (Homo sapiens, UniProt P02708)"
  Binding affinity: "33 Ru"
- substance: "6mer-1-943 (KKEHDK)"
  targetDesc: "acetylcholine receptor (Homo sapiens, UniProt P02708)"
  Binding affinity: "43 Ru"
- substance: "6mer-1-900 (RRDTGR)"
  targetDesc: "acetylcholine receptor (Homo sapiens, UniProt P02708)"
  Binding affinity: "24 Ru"
- substance: "6mer-1-839 (KRNWAK)"
  targetDesc: "acetylcholine receptor (Homo sapiens, UniProt P02708)"
  Binding affinity: "29 Ru"
- substance: "6mer-1-983 (KRPHKK)"
  targetDesc: "acetylcholine receptor (Homo sapiens, UniProt P02708)"
  Binding affinity: "38 Ru"
- substance: "6mer-1-946 (RRCEPR)"
  targetDesc: "acetylcholine receptor (Homo sapiens, UniProt P02708)"
  Binding affinity: "31 Ru"
- substance: "6mer-1-889 (KRIMEK)"
  targetDesc: "acetylcholine receptor (Homo sapiens, UniProt P02708)"
  Binding affinity: "25 Ru"
- substance: "6mer-1-916 (RRNAAK)"
  targetDesc: "acetylcholine receptor (Homo sapiens, UniProt P02708)"
  Binding affinity: "33 Ru"
- substance: "6mer-1-800 (RREHIR)"
  targetDesc: "acetylcholine receptor (Homo sapiens, UniProt P02708)"
  Binding affinity: "15 Ru"
- substance: "6mer-1-922 (RRDWGR)"
  targetDesc: "acetylcholine receptor (Homo sapiens, UniProt P02708)"
  Binding affinity: "34 Ru"
- substance: "6mer-1-990 (RRFTER)"
  targetDesc: "acetylcholine receptor (Homo sapiens, UniProt P02708)"
  Binding affinity: "40 Ru"
- substance: "6mer-1-963 (RREEDK)"
  targetDesc: "acetylcholine receptor (Homo sapiens, UniProt P02708)"
  Binding affinity: "29 Ru"
- substance: "6mer-1-815 (RRFEMR)"
  targetDesc: "acetylcholine receptor (Homo sapiens, UniProt P02708)"
  Binding affinity: "23 Ru"
- substance: "6mer-1-830 (KKTTMK)"
  targetDesc: "acetylcholine receptor (Homo sapiens, UniProt P02708)"
  Binding affinity: "33 Ru"
- substance: "6mer-1-935 (RKKDIK)"
  targetDesc: "acetylcholine receptor (Homo sapiens, UniProt P02708)"
  Binding affinity: "40 Ru"
- substance: "6mer-1-982 (KRCPDR)"
  targetDesc: "acetylcholine receptor (Homo sapiens, UniProt P02708)"
  Binding affinity: "35 Ru"
- substance: "6mer-1-913 (KRFWWK)"
  targetDesc: "acetylcholine receptor (Homo sapiens, UniProt P02708)"
  Binding affinity: "27 Ru"
- substance: "6mer-1-849 (KKFNWK)"
  targetDesc: "acetylcholine receptor (Homo sapiens, UniProt P02708)"
  Binding affinity: "21 Ru"
- substance: "6mer-1-985 (KRKSER)"
  targetDesc: "acetylcholine receptor (Homo sapiens, UniProt P02708)"
  Binding affinity: "22 Ru"
- substance: "6mer-1-827 (RKKKFR)"
  targetDesc: "acetylcholine receptor (Homo sapiens, UniProt P02708)"
  Binding affinity: "30 Ru"
- substance: "6mer-1-826 (KKAHMR)"
  targetDesc: "acetylcholine receptor (Homo sapiens, UniProt P02708)"
  Binding affinity: "31 Ru"
- substance: "6mer-1-855 (RKCDVR)"
  targetDesc: "acetylcholine receptor (Homo sapiens, UniProt P02708)"
  Binding affinity: "15 Ru"
- substance: "6mer-1-854 (KKEAVR)"
  targetDesc: "acetylcholine receptor (Homo sapiens, UniProt P02708)"
  Binding affinity: "16 Ru"
- substance: "6mer-1-930 (KKESNK)"
  targetDesc: "acetylcholine receptor (Homo sapiens, UniProt P02708)"
  Binding affinity: "43 Ru"
- substance: "6mer-1-886 (RKFSNK)"
  targetDesc: "acetylcholine receptor (Homo sapiens, UniProt P02708)"
  Binding affinity: "17 Ru"
- substance: "6mer-1-948 (RKFTVR)"
  targetDesc: "acetylcholine receptor (Homo sapiens, UniProt P02708)"
  Binding affinity: "24 Ru"
- substance: "6mer-1-843 (KKKTIK)"
  targetDesc: "acetylcholine receptor (Homo sapiens, UniProt P02708)"
  Binding affinity: "28 Ru"
- substance: "6mer-1-812 (RKDHMK)"
  targetDesc: "acetylcholine receptor (Homo sapiens, UniProt P02708)"
  Binding affinity: "26 Ru"
- substance: "6mer-1-867 (KRIPMR)"
  targetDesc: "acetylcholine receptor (Homo sapiens, UniProt P02708)"
  Binding affinity: "25 Ru"
- substance: "6mer-1-927 (KRESHR)"
  targetDesc: "acetylcholine receptor (Homo sapiens, UniProt P02708)"
  Binding affinity: "37 Ru"
- substance: "6mer-1-876 (RKYWAR)"
  targetDesc: "acetylcholine receptor (Homo sapiens, UniProt P02708)"
  Binding affinity: "19 Ru"
- substance: "6mer-1-971 (RKIEMK)"
  targetDesc: "acetylcholine receptor (Homo sapiens, UniProt P02708)"
  Binding affinity: "32 Ru"
- substance: "6mer-1-914 (RRKCVR)"
  targetDesc: "acetylcholine receptor (Homo sapiens, UniProt P02708)"
  Binding affinity: "39 Ru"
- substance: "6mer-1-951 (RKAMDK)"
  targetDesc: "acetylcholine receptor (Homo sapiens, UniProt P02708)"
  Binding affinity: "29 Ru"
